Data provenance is paper PMC5883364.

Listing of recorded Selectivity index LD50 (V79)/IC50 (Dd2) by entry.
Tested on: V79 (Chinese hamster lung) cells
Details: V79 vs Dd2
Please respond with just the number, no unit label.

molecule="c1ccc(N2N=NNC23OOC2(O3)C3CC4CC(C3)CC2C4)cc1 (centres unmarked)" system_name="V79 (Chinese hamster lung) cells" observed_measurement=887.3
molecule="CC(C)(C)OC(=O)NCCCCNC1CCC2(CC1)OOC1(O2)C2CC3CC(C2)CC1C3 (centres unmarked)" system_name="V79 (Chinese hamster lung) cells" observed_measurement=22421.5
molecule="C[C@@H]1CC[C@H]2[C@@H](C)C(=O)O[C@@H]3O[C@@]4(C)CC[C@@H]1[C@]32OO4 [ART, artemisinin, reference compound]" system_name="V79 (Chinese hamster lung) cells" observed_measurement=168515.4
molecule="c1ccc(-n2nnnc2OCC2CCC3(CC2)OOC2(O3)C3CC4CC(C3)CC2C4)cc1 (centres unmarked)" system_name="V79 (Chinese hamster lung) cells" observed_measurement=37596.9
molecule="CC(C)(C)OC(=O)NCCCCNC(=O)C1CCC2(CC1)OOC1(O2)C2CC3CC(C2)CC1C3 (centres unmarked)" system_name="V79 (Chinese hamster lung) cells" observed_measurement=294117.6
molecule="O=C1CCC2(CC1)OOC1(O2)C2CC3CC(C2)CC1C3 (centres unmarked)" system_name="V79 (Chinese hamster lung) cells" observed_measurement=42372.8
molecule="CCCCNC(=O)C1CCC2(CC1)OOC1(O2)C2CC3CC(C2)CC1C3 (centres unmarked)" system_name="V79 (Chinese hamster lung) cells" observed_measurement=44247.8
molecule="NCC1CCC2(CC1)OOC1(O2)C2CC3CC(C2)CC1C3 (centres unmarked)" system_name="V79 (Chinese hamster lung) cells" observed_measurement=1784.7
molecule="O=S1(=O)N=C(OCC2CCC3(CC2)OOC2(O3)C3CC4CC(C3)CC2C4)c2ccccc21 (centres unmarked)" system_name="V79 (Chinese hamster lung) cells" observed_measurement=23148.1
molecule="C1C2CC3CC1CC(C2)C31OOC2(CCC(Nc3nnn[nH]3)CC2)OO1 (centres unmarked)" system_name="V79 (Chinese hamster lung) cells" observed_measurement=22988.5

## Task What measured Selectivity index LD50 (V79)/IC50 (Dd2) goes with Cn1nnc(NCC2CCC3(CC2)OOC2(O3)C3CC4CC(C3)CC2C4)n1 (centres unmarked) ?
## Result 476190.5

## Task Consider the molecule O=C(Nc1nnn[nH]1)C1CCC2(CC1)OOC1(O2)C2CC3CC(C2)CC1C3 (centres unmarked) and give its measured Selectivity index LD50 (V79)/IC50 (Dd2).
## Result 9354.5

## Task What value of Selectivity index LD50 (V79)/IC50 (Dd2) has been recorded for this entry: C1C2CC3CC1CC(C2)C31OOC2(CCC(Nc3nnn[nH]3)CC2)O1 (centres unmarked)
## Result 400000.0

## Task What value of Selectivity index LD50 (V79)/IC50 (Dd2) has been reported for the following molecule? O=S1(=O)N=C(NCC2CCC3(CC2)OOC2(O3)C3CC4CC(C3)CC2C4)c2ccccc21 (centres unmarked)
## Result 40322.6

----------
Test system: V79 (Chinese hamster lung) cells
Settings: V79 vs 3D7
MEASURED_PARAMETER: Selectivity index LD50 (V79)/IC50 (3D7)
A bare number is all that is needed in reply.

molecule="O=C1CCC2(CC1)OOC1(O2)C2CC3CC(C2)CC1C3 (centres unmarked)" system_name="V79 (Chinese hamster lung) cells" observed_measurement=71428.6

## Task Short answer please: Selectivity index LD50 (V79)/IC50 (3D7), V79 (Chinese hamster lung) cells, entry c1ccc(N2N=NNC23OOC2(O3)C3CC4CC(C3)CC2C4)cc1 (centres unmarked)
## Result 273.3

## Task Lab note: need Selectivity index LD50 (V79)/IC50 (3D7) for O=S1(=O)N=C(OCC2CCC3(CC2)OOC2(O3)C3CC4CC(C3)CC2C4)c2ccccc21 (centres unmarked) on V79 (Chinese hamster lung) cells, anyone have it?
## Result 23310.0

## Task What reported Selectivity index LD50 (V79)/IC50 (3D7) corresponds to NCC1CCC2(CC1)OOC1(O2)C2CC3CC(C2)CC1C3 (centres unmarked) on V79 (Chinese hamster lung) cells?
## Result 3441.7

## Task Param readout= Selectivity index LD50 (V79)/IC50 (3D7); system= V79 (Chinese hamster lung) cells; entry= CC(C)(C)OC(=O)NCCCCNC1CCC2(CC1)OOC1(O2)C2CC3CC(C2)CC1C3 (centres unmarked) ; returns value.
## Result 25575.4

## Task Enter reported Selectivity index LD50 (V79)/IC50 (3D7) observed with V79 (Chinese hamster lung) cells for CCCCNC(=O)C1CCC2(CC1)OOC1(O2)C2CC3CC(C2)CC1C3 (centres unmarked)
## Result 37453.1

## Task Form field: Selectivity index LD50 (V79)/IC50 (3D7) recorded for O=C(Nc1nnn[nH]1)C1CCC2(CC1)OOC1(O2)C2CC3CC(C2)CC1C3 (centres unmarked) with V79 (Chinese hamster lung) cells (enter value)
## Result 8568.9

## Task # query: Selectivity index LD50 (V79)/IC50 (3D7) | item C1C2CC3CC1CC(C2)C31OOC2(CCC(Nc3nnn[nH]3)CC2)O1 (centres unmarked) | system: V79 (Chinese hamster lung) cells
## Result 357142.8

## Task Find Selectivity index LD50 (V79)/IC50 (3D7) (V79 (Chinese hamster lung) cells) for the entry O=S1(=O)N=C(NCC2CCC3(CC2)OOC2(O3)C3CC4CC(C3)CC2C4)c2ccccc21 (centres unmarked)
## Result 42918.4

## Task Fill in the recorded Selectivity index LD50 (V79)/IC50 (3D7) for this molecule, with V79 (Chinese hamster lung) cells as test system: Cn1nnc(NCC2CCC3(CC2)OOC2(O3)C3CC4CC(C3)CC2C4)n1 (centres unmarked)
## Result 344827.5

## Task Form entry - test system: V79 (Chinese hamster lung) cells; read-out: Selectivity index LD50 (V79)/IC50 (3D7); molecule: c1ccc(-n2nnnc2OCC2CCC3(CC2)OOC2(O3)C3CC4CC(C3)CC2C4)cc1 (centres unmarked)
## Result 41322.3

----------
Tested on: Plasmodium berghei NK65
Assay: Peters' 4-day suppressive test in Swiss albino mice
Assay type: in vivo
Details: Plasmodium berghei, 120 h; mice, 50 mg/kg/day oral for 4 days, day 5, vs control group; read-out: % inhibition of parasite growth, Day 5 (converted)
MEASURED_PARAMETER: inhibition in vivo at 50 mg/kg/day

// solved cases for inhibition in vivo at 50 mg/kg/day follow
compound="C1C2CC3CC1CC(C2)C31OOC2(CCC(Nc3nnn[nH]3)CC2)O1 (stereo not shown)" system_name="Plasmodium berghei NK65" observed_measurement=100%
compound="c1ccc(-n2nnnc2OCC2CCC3(CC2)OOC2(O3)C3CC4CC(C3)CC2C4)cc1 (stereo not shown)" system_name="Plasmodium berghei NK65" observed_measurement=100%
compound="O=S1(=O)N=C(OCC2CCC3(CC2)OOC2(O3)C3CC4CC(C3)CC2C4)c2ccccc21 (stereo not shown)" system_name="Plasmodium berghei NK65" observed_measurement=87.6%

## Task Param item = CCCCNC(=O)C1CCC2(CC1)OOC1(O2)C2CC3CC(C2)CC1C3 (stereo not shown) ; retrieve measured inhibition in vivo at 50 mg/kg/day.
## Result 98.3%

## Task Request the reported inhibition in vivo at 50 mg/kg/day associated with Cn1nnc(NCC2CCC3(CC2)OOC2(O3)C3CC4CC(C3)CC2C4)n1 (stereo not shown)
## Result 100%

## Task Query: inhibition in vivo at 50 mg/kg/day; subject: C1C2CC3CC1CC(C2)C31OOC2(CCC(Nc3nnn[nH]3)CC2)OO1 (stereo not shown)
## Result 100%

## Task Suppose we examine the compound O=S1(=O)N=C(NCC2CCC3(CC2)OOC2(O3)C3CC4CC(C3)CC2C4)c2ccccc21 (stereo not shown) ; what inhibition in vivo at 50 mg/kg/day value has been reported?
## Result 100%

----------
Tested on: P. falciparum Dd2 (chloroquine-resistant, mefloquine-resistant)
Experiment: SYBR Green I assay, IC50, strain Dd2
Type: cell-based, Plasmodium falciparum
Settings: read-out: P. falciparum IC50 ± SD, Dd2; strain Dd2
MEASURED_PARAMETER: IC50

## Task Give P. falciparum Dd2 (chloroquine-resistant, mefloquine-resistant) IC50 for CCN(CC)CCCC(C)Nc1ccnc2cc(Cl)ccc12 (stereo not shown) [CQ, chloroquine, reference compound]
## Result 340 nM

----------
Tested on: V79 (Chinese hamster lung) cells
Details: V79 vs IPC4912
molecules and their reported Selectivity index LD50 (V79)/IC50 (IPC4912)
Answer with a number only.

Sample answers from the record:
molecule="C[C@@H]1CC[C@H]2[C@@H](C)C(=O)O[C@@H]3O[C@@]4(C)CC[C@@H]1[C@]32OO4 [ART, artemisinin, reference compound]" system_name="V79 (Chinese hamster lung) cells" observed_measurement=31295.7
molecule="CC(C)(C)OC(=O)NCCCCNC1CCC2(CC1)OOC1(O2)C2CC3CC(C2)CC1C3 (stereo not shown) [MIS14]" system_name="V79 (Chinese hamster lung) cells" observed_measurement=2567.4
molecule="C1C2CC3CC1CC(C2)C31OOC2(CCC(Nc3nnn[nH]3)CC2)O1 (stereo not shown) [LC136]" system_name="V79 (Chinese hamster lung) cells" observed_measurement=147058.8

## Task Bench note: what Selectivity index LD50 (V79)/IC50 (IPC4912) did C1C2CC3CC1CC(C2)C31OOC2(CCC(Nc3nnn[nH]3)CC2)OO1 (stereo not shown) [LC163] show?
## Result 53763.4

## Task Name the reported Selectivity index LD50 (V79)/IC50 (IPC4912) value associated with the molecule CCCCNC(=O)C1CCC2(CC1)OOC1(O2)C2CC3CC(C2)CC1C3 (stereo not shown) [LC92]
## Result 28653.3

## Task Can you look up the measured Selectivity index LD50 (V79)/IC50 (IPC4912) of Cn1nnc(NCC2CCC3(CC2)OOC2(O3)C3CC4CC(C3)CC2C4)n1 (stereo not shown) [LC131] for me?
## Result 208333.3

## Task What measured Selectivity index LD50 (V79)/IC50 (IPC4912) goes with c1ccc(-n2nnnc2OCC2CCC3(CC2)OOC2(O3)C3CC4CC(C3)CC2C4)cc1 (stereo not shown) [LC132] ?
## Result 50761.4

## Task Consider the molecule shown here: CC(C)(C)OC(=O)NCCCCNC(=O)C1CCC2(CC1)OOC1(O2)C2CC3CC(C2)CC1C3 (stereo not shown) [MIS13] What is its recorded Selectivity index LD50 (V79)/IC50 (IPC4912)?
## Result 3333333.3

## Task // query Selectivity index LD50 (V79)/IC50 (IPC4912) value for entry O=S1(=O)N=C(OCC2CCC3(CC2)OOC2(O3)C3CC4CC(C3)CC2C4)c2ccccc21 (stereo not shown) [LC129]
## Result 29673.5

## Task Could you share which Selectivity index LD50 (V79)/IC50 (IPC4912) value was measured for O=S1(=O)N=C(NCC2CCC3(CC2)OOC2(O3)C3CC4CC(C3)CC2C4)c2ccccc21 (stereo not shown) [LC130] ?
## Result 416666.6
